target: UniProt:Q8NER1; assay: Antagonist activity at human TRPV1 transfected in CHOK1 cells assessed as inhibition of capsaicin-induced intracellular calcium level measured for 120 secs by FLIPR analysis
Sequence (Q8NER1 whole entry): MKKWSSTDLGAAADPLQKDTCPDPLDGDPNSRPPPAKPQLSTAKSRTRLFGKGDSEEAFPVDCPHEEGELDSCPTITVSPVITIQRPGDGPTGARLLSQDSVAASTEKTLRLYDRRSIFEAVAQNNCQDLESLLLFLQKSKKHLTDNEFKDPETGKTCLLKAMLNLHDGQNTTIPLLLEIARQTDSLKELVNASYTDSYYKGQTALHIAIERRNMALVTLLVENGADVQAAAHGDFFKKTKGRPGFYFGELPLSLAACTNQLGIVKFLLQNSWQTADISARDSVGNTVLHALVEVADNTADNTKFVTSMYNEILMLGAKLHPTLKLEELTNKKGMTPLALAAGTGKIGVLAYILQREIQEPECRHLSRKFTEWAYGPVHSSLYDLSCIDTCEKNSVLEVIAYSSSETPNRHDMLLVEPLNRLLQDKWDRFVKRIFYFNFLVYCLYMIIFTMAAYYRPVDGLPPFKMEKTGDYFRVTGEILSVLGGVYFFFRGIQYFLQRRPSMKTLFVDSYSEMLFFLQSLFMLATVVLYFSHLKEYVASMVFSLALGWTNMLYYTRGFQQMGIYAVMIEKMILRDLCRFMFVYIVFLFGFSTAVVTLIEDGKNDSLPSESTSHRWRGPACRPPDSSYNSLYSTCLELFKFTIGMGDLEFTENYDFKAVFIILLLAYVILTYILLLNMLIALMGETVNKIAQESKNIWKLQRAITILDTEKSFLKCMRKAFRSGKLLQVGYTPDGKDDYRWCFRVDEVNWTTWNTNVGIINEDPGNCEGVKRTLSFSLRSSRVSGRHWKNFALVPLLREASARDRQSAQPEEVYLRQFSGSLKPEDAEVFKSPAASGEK
measurementName: IC50 (nM)
Give the quantity in nM, number only.

Known results for compounds:
# compound, resultUnits, IC50
records = [
    ("CN(CCO)c1ccc(NC(=O)COc2ccc(C(C)(C)C)cc2N2CCCCC2)cn1", "nM", 941),
    ("O=C(Nc1ccccc1Br)N[C@H]1CCN(c2ccc(C(F)(F)F)cn2)C1", "nM", 120),
    ("CCN(C)c1ccc(NC(=O)COc2ccc(C(C)(C)C)cc2)cn1", "nM", 583),
    ("CC(C)(C)c1ccc(OCC(=O)Nc2ccc(N3CCC(O)C3)nc2)cc1 (configuration not stated)", "nM", 516),
    ("CN(CCO)c1ccc(NC(=O)COc2ccc(C(C)(C)C)cc2C(C)(C)C)cn1", "nM", 107),
]

Challenge: Name the reported IC50 value associated with the compound CN(CCO)c1ccc(NC(=O)COc2cccc(C(C)(C)C)c2)cn1
Response given: 2620

Challenge: Moving on to the next compound: CC(C)(C)c1ccc(OCC(=O)Nc2ccc(N3CCCC3)nc2)cc1
Response given: 411

Each recorded value in this set is attributed to ChEMBL document CHEMBL2380273.
